- testSummary: Cytotoxicity against HEL cells assessed as cell morphology after 7 days
- Format: cell-based
- conditionDescription: human
outcomeMeasure: MCC at 168 h

[
  {
    "molecule": "COc1cc(CC(C)(O)CF)nc(OC)n1 (configuration not stated)",
    "reported": "> 100 µM"
  },
  {
    "molecule": "COc1nc(CC(C)(O)c2ccc(F)cc2)c(C)c(OC)n1 (configuration not stated)",
    "reported": "> 100 µM"
  },
  {
    "molecule": "COc1nc(CBr)c(Br)c(OC)n1",
    "reported": "> 100 µM"
  },
  {
    "molecule": "Nc1ccn(C[C@@H](CO)OCP(=O)(O)O)c(=O)n1",
    "reported": "≥ 1270 µM"
  },
  {
    "molecule": "CC(=O)OC(C)(Cc1cc(O)nc(O)n1)Cc1ccccc1F (configuration not stated)",
    "reported": "> 100 µM"
  },
  {
    "molecule": "CC(=O)OC(C)(CF)Cc1cc(O)nc(O)n1 (configuration not stated)",
    "reported": "> 100 µM"
  },
  {
    "molecule": "COc1cc(CC(C)(O)C(F)(F)F)nc(OC)n1 (configuration not stated)",
    "reported": "> 100 µM"
  }
]

---

The following compounds are shown together with reported IC50 values.
- Tested on: HeLa
- testSummary: Growth inhibition of HeLa cells after 72 hrs by MTT assay
- Type: functional, cell-based
- conditionDescription: Homo sapiens
outcomeMeasure: IC50

[
  {
    "compound": "COc1cc(/C=C(/O)C(F)(F)F)nc(OC)n1",
    "reported": "> 200 µM"
  },
  {
    "compound": "COc1cc(CC(C)(O)Cc2ccccc2F)nc(OC)n1 (stereo unspecified)",
    "reported": "> 200 µM"
  },
  {
    "compound": "COc1cc(CC(C)(O)c2ccc(F)cc2)nc(OC)n1 (stereo unspecified)",
    "reported": "> 100 µM"
  },
  {
    "compound": "CC(O)(Cc1cc(O)nc(O)n1)C(F)(F)F (stereo unspecified)",
    "reported": "> 100 µM"
  },
  {
    "compound": "CC(O)(CF)Cc1cc(O)nc(O)n1 (stereo unspecified)",
    "reported": "> 200 µM"
  },
  {
    "compound": "COc1nc(C)c(Br)c(OC)n1",
    "reported": "> 100 µM"
  }
]

---

- System: CCRF-CEM
- testSummary: Growth inhibition of human CEM cells after 72 hrs by MTT assay
- Type: functional, cell-based
The following compounds are shown together with reported IC50 values.
outcomeMeasure: IC50

[
  {
    "compound": "COc1cc(CC(C)(O)CF)nc(OC)n1 (stereo not given)",
    "testedSystem": "CCRF-CEM",
    "reported": "> 200 µM"
  },
  {
    "compound": "COc1cc(/C=C(/O)C(F)(F)F)nc(OC)n1",
    "testedSystem": "CCRF-CEM",
    "reported": "> 200 µM"
  },
  {
    "compound": "CC(O)(Cc1cc(O)nc(O)n1)C(F)(F)F (stereo not given)",
    "testedSystem": "CCRF-CEM",
    "reported": "> 500 µM"
  },
  {
    "compound": "CC(=O)OC(C)(Cc1cc(O)nc(O)n1)Cc1ccccc1F (stereo not given)",
    "testedSystem": "CCRF-CEM",
    "reported": "> 200 µM"
  },
  {
    "compound": "COc1cc(CC(C)(O)c2ccc(F)cc2)nc(OC)n1 (stereo not given)",
    "testedSystem": "CCRF-CEM",
    "reported": "> 200 µM"
  }
]
